- Target or test system: HDAC6 (Homo sapiens, UniProt Q9UBN7)
- Sequence (Q9UBN7 whole entry): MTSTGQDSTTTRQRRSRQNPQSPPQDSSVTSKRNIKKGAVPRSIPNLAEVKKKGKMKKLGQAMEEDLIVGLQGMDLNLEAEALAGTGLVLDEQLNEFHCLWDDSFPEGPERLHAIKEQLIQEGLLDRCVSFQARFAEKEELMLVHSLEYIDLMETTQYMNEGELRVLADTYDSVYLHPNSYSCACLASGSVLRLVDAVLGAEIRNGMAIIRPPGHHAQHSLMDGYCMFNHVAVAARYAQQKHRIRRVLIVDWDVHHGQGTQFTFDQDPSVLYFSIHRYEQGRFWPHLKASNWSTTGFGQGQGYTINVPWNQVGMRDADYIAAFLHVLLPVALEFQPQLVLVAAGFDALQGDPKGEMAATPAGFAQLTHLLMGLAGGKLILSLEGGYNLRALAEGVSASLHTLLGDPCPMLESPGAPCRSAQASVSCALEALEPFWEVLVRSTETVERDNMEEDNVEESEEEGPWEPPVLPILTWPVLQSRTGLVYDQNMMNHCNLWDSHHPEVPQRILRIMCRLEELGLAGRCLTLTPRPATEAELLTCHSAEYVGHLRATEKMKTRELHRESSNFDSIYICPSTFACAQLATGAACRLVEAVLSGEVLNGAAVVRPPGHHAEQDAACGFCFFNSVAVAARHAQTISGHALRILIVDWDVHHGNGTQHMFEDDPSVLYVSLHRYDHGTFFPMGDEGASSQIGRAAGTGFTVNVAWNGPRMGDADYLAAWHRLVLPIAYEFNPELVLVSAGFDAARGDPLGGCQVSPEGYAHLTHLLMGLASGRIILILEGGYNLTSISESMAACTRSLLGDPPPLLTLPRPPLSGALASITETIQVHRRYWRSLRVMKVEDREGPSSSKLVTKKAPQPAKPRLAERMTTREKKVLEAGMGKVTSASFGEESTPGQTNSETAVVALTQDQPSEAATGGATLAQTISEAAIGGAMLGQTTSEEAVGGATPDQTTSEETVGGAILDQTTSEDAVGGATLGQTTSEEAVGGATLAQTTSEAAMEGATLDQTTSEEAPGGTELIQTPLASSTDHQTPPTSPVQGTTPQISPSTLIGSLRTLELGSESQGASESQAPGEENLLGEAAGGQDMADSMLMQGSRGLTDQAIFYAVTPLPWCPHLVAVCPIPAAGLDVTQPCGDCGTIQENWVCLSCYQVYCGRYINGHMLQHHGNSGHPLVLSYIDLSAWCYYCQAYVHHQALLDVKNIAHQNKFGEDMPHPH
- Experiment: HDACs activity assay, HDAC6
- Type: biochemical
Experimental endpoint: IC50

Would you please give the reported IC50 of CN1c2ccccc2C(=O)N2[C@H](C(=O)Nc3ccc(C(=O)Nc4ccccc4N)cc3)Cc3c([nH]c4ccccc34)[C@@H]12 [Compound 30a] with HDAC6 (Homo sapiens, UniProt Q9UBN7)?
> 100 µM

---

- Experiment: Pharmacokinetic study in SD rats
- Type: in vivo
- Condition info: male, Sprague-Dawley, rat, plasma, po, 20 mg/kg
Experimental endpoint: AUC(0-t) (ng·h/mL)
Give bare numbers, in ng·h/mL.

Return AUC(0-t) for the following compound: CN1c2ccccc2C(=O)N2[C@H](C(=O)Nc3ccc(C(=O)Nc4ccccc4N)cc3)Cc3c([nH]c4ccccc34)[C@@H]12 [Compound 30a]
485
